- TARGET_OR_SYSTEM: Follistatin (Homo sapiens) (UniProt P19883)
- Sequence (P19883 whole entry, looked up): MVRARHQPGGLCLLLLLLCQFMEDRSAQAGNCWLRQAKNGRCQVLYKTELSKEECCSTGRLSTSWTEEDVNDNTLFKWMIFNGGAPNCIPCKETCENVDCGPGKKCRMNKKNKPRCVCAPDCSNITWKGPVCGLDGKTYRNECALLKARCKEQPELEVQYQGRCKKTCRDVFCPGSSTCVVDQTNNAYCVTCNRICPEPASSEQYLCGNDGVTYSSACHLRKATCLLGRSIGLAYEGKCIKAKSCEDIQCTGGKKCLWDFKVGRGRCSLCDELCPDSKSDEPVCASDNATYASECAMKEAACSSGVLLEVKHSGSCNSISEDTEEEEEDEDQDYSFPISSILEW
- ASSAY: follistatin binders on small-molecule microarrays, primary screen, biochemical, small-molecule microarray, 635/667 nm fluorescence (AID 1132)
- RUN_PARAMETERS: FST binding, 635 nm fluorescence, higher = more signal
I'd be grateful if you could share measured composite z-score for these entries.

[in] Give composite z-score (Follistatin (Homo sapiens) (UniProt P19883)) of the following molecule: C[C@H]1C2[C@H](Cc3ccccc3)NC(=O)[C@]23C(=O)N[C@H](Cc2ccccc2)C(=O)N2CCC[C@H]2C(=O)NC/C=C\C/C=C/C3[C@@H]2O[C@]12C (some centres not stated)
[out] 0.559

[in] Give composite z-score (Follistatin (Homo sapiens) (UniProt P19883)) of the following molecule: `O=C1C[C@@](C(=O)NCC(F)(F)F)(c2ccc([N+](=O)[O-])cc2)[C@@H](c2ccc(CO)cc2I)N1C1CCCCC1`
[out] 1.05

[in] Give composite z-score (Follistatin (Homo sapiens) (UniProt P19883)) of the following molecule: CC1CC/C=C\[C@H]2OC34C=CCN(Cc5ccccc5)C(=O)[C@H]3N(CCCO)C(=O)[C@@H]4C2C(=O)O1 (some centres not stated)
[out] -0.838

[in] Give composite z-score (Follistatin (Homo sapiens) (UniProt P19883)) of the following molecule: `COCCOC(=O)N1C(=O)[C@@]2(c3cc(C#CCCO)ccc31)[C@H](C(=O)N1CCCCCCC1)[C@H]1C(=O)O[C@H](c3ccccc3)[C@H](c3ccccc3)N1[C@@H]2c1ccc(OCCO)cc1`
[out] 1.4

[in] Give composite z-score (Follistatin (Homo sapiens) (UniProt P19883)) of the following molecule: `C=C(CCCC)/C(=C/C[C@@H](OC(=O)c1ccncc1)c1ccc(OCCO)cc1)c1cc(C(=O)OC)ccc1OC`
[out] 0.641

[in] Give composite z-score (Follistatin (Homo sapiens) (UniProt P19883)) of the following molecule: CC(C)C(O)C1C=CC2C(=O)NC(=O)C2N1Nc1ccc(Cl)cc1Cl (configuration not stated)
[out] 0.345

[in] Give composite z-score (Follistatin (Homo sapiens) (UniProt P19883)) of the following molecule: `COCCOC(=O)N1C(=O)[C@@]2(c3cc(C#Cc4ccc(OC)cc4)ccc31)[C@H](c1ccccc1OCCO)N1[C@H](c3ccccc3)[C@H](c3ccccc3)OC(=O)[C@H]1[C@@H]2C(=O)NC[C@H](O)c1ccccc1`
[out] 1.33

---

I'd be grateful if you could share measured composite z-score for these entries.
- ASSAY: small-molecule binders of probe aNOTCH3, primary screen, biochemical, small-molecule microarray, 635/667 nm fluorescence (AID 1120);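 also: probe is a biotin-tagged antibody raised against NOTCH3 rather than NOTCH3 protein; score merges spot fluorescence near 667 nm with spot signal to noise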
- RUN_PARAMETERS: higher = more signal
// no unit, no text: just the number

[in] Look up composite z-score for this molecule: `COCCOC(=O)N1C(=O)[C@@]2(c3cc(C#CCC(C(=O)OC)C(=O)OC)ccc31)[C@H](C(=O)Nc1nc3ccccc3s1)[C@H]1C(=O)O[C@H](c3ccccc3)[C@H](c3ccccc3)N1[C@@H]2c1ccccc1OCCO`
[out] -0.0343

[in] Look up composite z-score for this molecule: CCC(CC)C(O)C1C=CC2C(=O)NC(=O)C2N1Nc1ccc(Cl)cc1Cl (stereo not drawn)
[out] 0.237

[in] Look up composite z-score for this molecule: `C=C(/C(=C/C[C@H](OC(C)=O)c1ccc(CO)o1)c1cc(C(=O)OC)ccc1OC)C(C)C`
[out] -0.0328

[in] Look up composite z-score for this molecule: `COC(=O)[C@@]1(Cc2ccc(OC)cc2)[C@H]2c3cc(C(=O)N4CCCC4)n(CCN4CNCC4=O)c3C[C@H]2CN1C(=O)c1ccccc1`
[out] 1.49

[in] Look up composite z-score for this molecule: C[C@H]1NC(=O)[C@@]23C(=O)N[C@@H](Cc4ccccc4)C2[C@H](C)[C@@]2(C)O[C@H]2C3/C=C/C/C=C\CNC(=O)[C@@H]2CCCN2C1=O (stereo partly drawn)
[out] -0.229

[in] Look up composite z-score for this molecule: CC1CC/C=C\[C@H]2OC34C=CCN(C(C)(C)C)C(=O)[C@H]3N(CCO)C(=O)[C@@H]4C2C(=O)O1 (stereo partly drawn)
[out] -0.341

[in] Look up composite z-score for this molecule: CCCCN1CC=CC23O[C@@H]4C=CCCOC(=O)C4[C@H]2C(=O)N(CCCCCCO)[C@@H]3C1=O (stereo partly drawn)
[out] -0.275

[in] Look up composite z-score for this molecule: `CC(C)N1C(=O)[C@@]2(Cc3ccccc31)c1ccccc1C(=O)N(Cc1ccccc1Cl)[C@H]2c1ccc(CO)cc1`
[out] -0.321

---

I'd be grateful if you could share measured composite z-score for these entries.
- TARGET_OR_SYSTEM: Follistatin (Homo sapiens) (UniProt P19883)
- ASSAY: follistatin binders on small-molecule microarrays, primary screen, biochemical, small-molecule microarray, 635/667 nm fluorescence (AID 1132)
- RUN_PARAMETERS: FST binding, 635 nm fluorescence, higher = more signal
// no unit, no text: just the number

[in] Look up composite z-score for this compound: `CCOC(=O)C1=C[C@@H](C(C)(C)C)N(S(=O)(=O)c2ccc(C)cc2)[C@H]1c1ccc(F)cc1`
[out] 1.05

[in] Look up composite z-score for this compound: CC(C)C[C@@H]1NC(=O)[C@H](C(C)C)NC(=O)[C@@]23C(=O)N[C@@H](Cc4ccccc4)C2[C@H](C)[C@@]2(C)O[C@H]2C3/C=C/CC/C=C/CNC1=O (some centres not stated)
[out] 1.29

[in] Look up composite z-score for this compound: [N-]=[N+]=Nc1ccccc1[C@H]1OC(c2ccc(OCCCO)cc2)=N[C@@]1(CCS(=O)(=O)c1ccccc1)C(=O)NCC(O)CO (some centres not stated)
[out] 1.27

[in] Look up composite z-score for this compound: `C=C[C@H](CO)NS(=O)(=O)c1ccc(Br)cc1`
[out] 1.06

[in] Look up composite z-score for this compound: CC(CO)N1C(=O)[C@@H]2C3C(=O)OCCC/C=C\[C@H]3OC23C=CCN(C(C)(C)C)C(=O)[C@@H]13 (some centres not stated)
[out] 0.122

[in] Look up composite z-score for this compound: `CCOC(=O)C[C@H]1[C@H](OC(=O)c2ccc(-c3ccccc3)cc2)[C@@H](NC(=O)Cc2ccc(OC)cc2)c2cc(OCCCO)ccc2N1C(=O)c1ccccc1`
[out] 0.349

[in] Look up composite z-score for this compound: `CC(C)OC(=O)C=C1C[C@@H](c2ccccn2)O[C@@H](c2ccccn2)O1`
[out] 1.34

---

- Test system: Neuregulin-1 EGF-like domain
- ASSAY: binders of neuregulin-1 EGF-like domain, primary screen, biochemical, small-molecule microarray, 635 nm fluorescence (AID 1081);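 also: binding of the protein to compounds printed on small-molecule microarray slides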
- RUN_PARAMETERS: small-molecule microarray binding, higher = more signal
QUANTITY_MEASURED: composite z-score

[in] Look up composite z-score for this compound: CC(C)c1ccc(NN2C(C(O)c3ccc(B(O)O)cc3)C=CC3C(=O)N(c4ccccc4)C(=O)C32)cc1 (stereo not given)
[out] 1.15

[in] Look up composite z-score for this compound: `CC(C)CNC(=O)[C@@]1(Cc2ccccc2I)c2ccccc2C(=O)N(C2CCCCC2)[C@H]1c1ccc(CO)cc1`
[out] 1.05

[in] Look up composite z-score for this compound: `COC(=O)[C@@]1(CCC(=O)OC(C)(C)C)N=C(c2ccc(OCCCO)cc2)O[C@H]1c1ccccc1N=[N+]=[N-]`
[out] 1.06

[in] Look up composite z-score for this compound: `CCCC=C(CCC)[C@@H](NC(=O)c1cccs1)c1ccc(C(F)(F)F)cc1`
[out] 0.729

[in] Look up composite z-score for this compound: `O=C1[C@@]23C=C(Br)[C@H](C[C@@H]2CCOC3)[C@@]12CO2`
[out] -0.1

---

- ASSAY: basal RPMI8226 viability, no added stimulus, profiling panel, cell-based, calcein-AM fluorescence, 48 h, PK04 Diversity Set (AID 1166);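 also: cells grown under basal conditions without added stimulus; test concentration not given here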
- RUN_PARAMETERS: RPMI8226 myeloma viability, higher = more signal
QUANTITY_MEASURED: z-score
// no unit, no text: just the number

[in] Look up z-score for this compound: `COCCOC(=O)N1C(=O)[C@@]2(c3cc(C#CCC(C(=O)OC)C(=O)OC)ccc31)[C@H](C(=O)N1CCN(c3ncccn3)CC1)[C@H]1C(=O)O[C@H](c3ccccc3)[C@H](c3ccccc3)N1[C@@H]2c1ccccc1OCCO`
[out] 0.297

[in] Look up z-score for this compound: `COC(=O)C[C@H]1O[C@]2(C(=O)N(C)c3ccccc32)[C@@H](C)[C@@H]1[Si](C)(C)F`
[out] -0.804

[in] Look up z-score for this compound: COc1cc(C(O)C2C=CC3C(=O)NC(=O)C3N2Nc2ccccn2)cc(OC)c1OC (stereo unspecified)
[out] 0.611

[in] Look up z-score for this compound: CC(C)C[C@@H]1NC(=O)[C@H](C(C)C)NC(=O)[C@@]23C(=O)N[C@@H](Cc4ccccc4)C2[C@H](C)[C@@]2(C)O[C@H]2C3/C=C/CC/C=C/CNC1=O (stereo partly specified)
[out] -0.789

[in] Look up z-score for this compound: `COC(=O)[C@@]1(Cc2ccc(F)cc2)[C@H]2c3cc(C(=O)N(C)C)n(Cc4cc(F)c(F)c(F)c4)c3C[C@H]2CN1C(=O)c1ccccc1`
[out] -1.93

[in] Look up z-score for this compound: `O=C1O[C@H](c2ccccc2)[C@H](c2ccccc2)N2[C@H]1[C@@H](C(=O)N1CCCCCCC1)[C@]1(C(=O)Nc3ccc(C#CC4=CCCCC4)cc31)[C@H]2c1ccc(OCCO)cc1`
[out] -1.4
